Measurement type: pIC50
Reminder that pIC50 means the negative base-10 logarithm of the concentration expressed in mol/L.

Return pIC50 measured with UniProtKB Q8WUI4 given this compound: O=C(NO)c1ccc(NCc2csc3cc(Br)ccc23)cc1 [Compound 13a]
Sequence (Q8WUI4 whole entry): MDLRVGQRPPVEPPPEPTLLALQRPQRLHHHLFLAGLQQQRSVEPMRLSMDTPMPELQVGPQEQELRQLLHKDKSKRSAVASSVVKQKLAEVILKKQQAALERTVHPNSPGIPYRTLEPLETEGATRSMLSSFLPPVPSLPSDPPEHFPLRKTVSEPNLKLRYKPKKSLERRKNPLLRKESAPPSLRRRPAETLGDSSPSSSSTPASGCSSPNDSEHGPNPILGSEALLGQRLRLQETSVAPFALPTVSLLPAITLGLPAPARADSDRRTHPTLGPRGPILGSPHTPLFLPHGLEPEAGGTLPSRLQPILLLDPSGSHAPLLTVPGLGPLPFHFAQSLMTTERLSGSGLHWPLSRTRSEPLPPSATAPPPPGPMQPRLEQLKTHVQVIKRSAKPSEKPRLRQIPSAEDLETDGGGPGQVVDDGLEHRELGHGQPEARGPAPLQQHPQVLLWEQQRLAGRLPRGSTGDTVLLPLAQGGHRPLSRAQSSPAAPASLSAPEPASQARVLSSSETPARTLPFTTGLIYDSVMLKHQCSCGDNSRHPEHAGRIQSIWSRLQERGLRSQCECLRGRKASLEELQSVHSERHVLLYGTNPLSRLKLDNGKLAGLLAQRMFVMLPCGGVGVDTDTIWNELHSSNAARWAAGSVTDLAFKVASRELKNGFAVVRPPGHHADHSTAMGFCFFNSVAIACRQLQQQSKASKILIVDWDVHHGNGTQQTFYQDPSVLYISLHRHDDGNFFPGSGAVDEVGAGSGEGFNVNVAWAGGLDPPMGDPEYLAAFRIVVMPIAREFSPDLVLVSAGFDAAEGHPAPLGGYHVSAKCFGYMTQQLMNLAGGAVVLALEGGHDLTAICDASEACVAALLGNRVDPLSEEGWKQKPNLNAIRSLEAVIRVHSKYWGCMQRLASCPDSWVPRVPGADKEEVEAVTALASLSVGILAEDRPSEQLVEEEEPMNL
4.92

Return pIC50 measured with UniProtKB Q8WUI4 given this compound: O=C(NO)c1ccc(NCc2csc3ccccc23)cc1
5.28

---

Target protein (sequence): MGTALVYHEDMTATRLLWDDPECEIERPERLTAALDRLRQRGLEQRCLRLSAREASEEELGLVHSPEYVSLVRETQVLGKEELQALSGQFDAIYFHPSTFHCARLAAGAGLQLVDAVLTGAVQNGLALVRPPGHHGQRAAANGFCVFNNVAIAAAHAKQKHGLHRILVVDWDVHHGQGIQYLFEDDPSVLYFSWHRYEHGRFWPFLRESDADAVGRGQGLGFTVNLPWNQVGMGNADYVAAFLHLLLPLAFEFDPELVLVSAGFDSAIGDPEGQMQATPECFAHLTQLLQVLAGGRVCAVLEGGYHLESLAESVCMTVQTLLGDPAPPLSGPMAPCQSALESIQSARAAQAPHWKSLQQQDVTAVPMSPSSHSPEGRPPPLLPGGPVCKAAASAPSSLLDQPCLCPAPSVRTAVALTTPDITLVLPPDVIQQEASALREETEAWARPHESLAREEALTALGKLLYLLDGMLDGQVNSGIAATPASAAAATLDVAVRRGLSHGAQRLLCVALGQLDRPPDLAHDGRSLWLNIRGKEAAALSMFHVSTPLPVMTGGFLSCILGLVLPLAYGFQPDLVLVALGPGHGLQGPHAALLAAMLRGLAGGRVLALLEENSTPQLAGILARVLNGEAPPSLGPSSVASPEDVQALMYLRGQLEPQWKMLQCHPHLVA
Measurement type: IC50 (µM)
Reply numerically in µM, unit not repeated.

Which measured IC50 value corresponds to O=C(NO)c1ccc(NCc2csc3ccccc23)cc1 ?
9.9

Which measured IC50 value corresponds to O=C(NO)c1ccc(NCc2csc3ccc(Br)cc23)cc1 ?
33

Which measured IC50 value corresponds to O=C(NO)c1ccc(NCc2csc3cc(Br)ccc23)cc1 [Compound 13a] ?
7.6
